MEASUREMENT TARGET: SARS-CoV-2 RBD (residues 331-550 of spike from BetaCoV/Wuhan-Hu-1/2019, accession number MN908947) (SARS-CoV-2 Wuhan-Hu-1, UniProt P0DTC2 331-550)
EXPERIMENT: BLI
Provide the recorded Kd for the entries that follow.
Respond with the bare value in nM.

Query string: Please report the recorded Kd for S2X259 variant antibody, VH SEQ ID NO 408 / VL SEQ ID NO 442 (antibody, V domains shown) VH: QVQLVQSGAEVKKPGSSVKVSCKASGGIFNTYTISWVRQAPGQGLEWMGRIILMSGMANYAQKIQGRVTITADKSTSTAYMELTSLRSDDTAVYYCARGFNGNYYGWGDDDAFDISGQGTLVTVYS VL: QTVLTQPPSVSGAPGQRVTISCTGSNSNIGAGYDVHWYQQLPGTAPKLLISGNSNRPSGVPDRFSGSKSGTSASLAITGLQAEDEADYYCQSYDSSLSGPNWVFGGGTKLTVL .
Result string: 0.0605

Query string: Please report the recorded Kd for S2X259 variant antibody, VH SEQ ID NO 448 / VL SEQ ID NO 412 (antibody, V domains shown) VH: QVQLVQSGAEVKKPGSSVKVSCKASGGIFSTYTISWVRQAPGQGLEWMGRIILMSGMANYAQKIQGRVTITADKSTSTAYMELTSLRSDDTAVYYCARGFNGNYYGWGDDDAFDISGQGTLVTVYS VL: QTVLTQPPSVSGAPGQRVTISCTGSNSNIGAGYDVHWYQQLPGTAPKLLICGNSNRPSGVPDRFSGSKSGTSASLAITGLQAEDEADYYCQSYDSSLSGPNWVFGGGTKLTVL .
Result string: 0.584

Query string: Please report the recorded Kd for S2X259 variant antibody, VH SEQ ID NO 408 / VL SEQ ID NO 445 (antibody, V domains shown) VH: QVQLVQSGAEVKKPGSSVKVSCKASGGIFNTYTISWVRQAPGQGLEWMGRIILMSGMANYAQKIQGRVTITADKSTSTAYMELTSLRSDDTAVYYCARGFNGNYYGWGDDDAFDISGQGTLVTVYS VL: QTVLTQPPSVSGAPGQRVTISCTGSNSNIGAGYDVHWYQQLPGTAPKLLIVGNSNRPSGVPDRFSGSKSGTSASLAITGLQAEDEADYYCQSYDSSLSGPNWVFGGGTKLTVL .
Result string: 0.0764
